- System: U-251
- test.details: NCI tumour cell line growth inhibition, 48 h
Calls of active or inactive are those of the source. No stated cut-off is given here; in the data, active = GI50 up to about 1.1 µM and inactive = higher.
Recorded GI50 values for a group of molecules are listed next.

COC(=O)c1ccc(CS(=O)(=O)c2ccccc2)cc1 | > 100 µM (inactive)

Tested on U-251, the item "CCOC(=O)CCSS(=O)(=O)C(F)(F)F" showed GI50 equal to > 100 µM (inactive)

Tested on U-251, the item "Clc1n[nH]c2ccccc12" showed GI50 equal to > 100 µM (inactive)

Tested on U-251, the item C=C(Br)C(C)(Br)CCC(Br)C(C)(C)Cl (stereo not given) showed GI50 equal to 16.2 µM (inactive)

Tested on U-251, the item "O=C1C(=C2SC(c3ccccc3)(c3ccccc3)c3ccccc32)C(=O)c2ccccc21" showed GI50 equal to > 100 µM (inactive)

Tested on U-251, the item CC1/C=C/C=C/CC/C=C/C=C/C=C/C=C/C(OC2OC(C)C(O)C(N)C2O)CC2OC(CC(O)C(O)CCC(O)CC(O)CC(O)CC(=O)OC(C)C(C)C1O)CC(O)C2C(=O)O (stereo not given) showed GI50 equal to 17.4 µM (inactive)
